Tested on: RhTP (rhabdomyosarcoma)
Assay: Growth inhibition, MTT colorimetric assay, RhTp
Format: cell-based
Settings: 72 h, read-out: IC50 RhTp
value-type: pIC50
Hey, just a heads up that pIC50 is the negative log base 10 of the concentration in molar.

Data request: Fill in the blank: the reported pIC50 of `Oc1ccc(CN(Cc2cccs2)Cc2ccc(O)c3ncccc23)c2cccnc12` is ____.
Data returned: 7.10

###

Test system: MCF-7 (epithelial breast cancer)
Experiment: Growth inhibition, MTT colorimetric assay, MCF7
Assay type: cell-based
Conditions: Homo sapiens, MCF7, 72 h; carcinoma; 3 days with drug; means of six values; unit inferred; read-out: IC50 MCF7
hey, just use true if measured IC50 is less than 100 nM, otherwise false

Data request: State whether 100 nM exceeds IC50 recorded for `Oc1ccc(CN(Cc2ccc(C(F)(F)F)cc2)Cc2ccc(O)c3ncccc23)c2cccnc12` .
Data returned: true

Data request: IC50 strictly < 100 nM for this molecule? `Oc1ccc(CN(Cc2cccc(I)c2)Cc2ccc(O)c3ncccc23)c2cccnc12`
Data returned: false

Data request: Find out if reported IC50 for O=C(O)C1CCC(CN(Cc2ccc(O)c3ncccc23)Cc2ccc(O)c3ncccc23)CC1 (centres unmarked) is less than 100 nM
Data returned: false

Data request: I'd appreciate it if you could check whether `Oc1ccc(CN(Cc2cccc(C(F)(F)F)c2)Cc2ccc(O)c3ncccc23)c2cccnc12` has IC50 smaller than 100 nM.
Data returned: true

Origin of values: patent US20110251238A1
